# assay-target: β-glucosidase BGI of A. oryzae (CBS 12559), molecular mass greater than 130,000
# test-method-notes: Inhibition of β-glucosidase BGI activity by glucose or δ-gluconolactone, PNPG as substrate
# experimental-parameters: read-out: inhibition constant (Ki) for glucose, with respect to PNPG, Lineweaver-Burk representation, competitive inhibitor
reported-endpoint: pKi
For clarity, pKi is expressed as the negative log10 of concentration in mol/L.

For the compound OC[C@H]1OC(O)[C@H](O)[C@@H](O)[C@@H]1O (stereo partly shown) , report pKi. 2.46
